Structure as smiles: CC(C)c1nc(CCCOCc2ccccc2)[nH]c1Sc1cc(Cl)cc(Cl)c1
melting point: 118 to 119 °C
--
Structure as smiles: Fc1ccc(-n2ccc3cc(OCCCCCCCBr)ccc32)cc1
melting point: 63 to 65 °C
--
Structure as smiles: CN(C)S(=O)(=O)c1cccc(OC(F)F)c1C#N
melting point: 100 to 102 °C
--
Structure as smiles: O=C(O)c1ccc2c(c1)nc(-c1ccc(OC(c3cccc(F)c3)c3cccc(F)c3)cc1F)n2C1CCCCC1
melting point: 242 to 243 °C
--
Structure as smiles: CSc1ccc2ccc(N3C(=O)c4ccccc4C3=O)nc2n1
melting point: 235 °C
